Numbers sourced from PubChem BioAssay AID624260.

- assayedSystem: Histone-lysine N-methyltransferase NSD2 (Homo sapiens) (UniProt O96028)
- Sequence (O96028 whole entry, looked up): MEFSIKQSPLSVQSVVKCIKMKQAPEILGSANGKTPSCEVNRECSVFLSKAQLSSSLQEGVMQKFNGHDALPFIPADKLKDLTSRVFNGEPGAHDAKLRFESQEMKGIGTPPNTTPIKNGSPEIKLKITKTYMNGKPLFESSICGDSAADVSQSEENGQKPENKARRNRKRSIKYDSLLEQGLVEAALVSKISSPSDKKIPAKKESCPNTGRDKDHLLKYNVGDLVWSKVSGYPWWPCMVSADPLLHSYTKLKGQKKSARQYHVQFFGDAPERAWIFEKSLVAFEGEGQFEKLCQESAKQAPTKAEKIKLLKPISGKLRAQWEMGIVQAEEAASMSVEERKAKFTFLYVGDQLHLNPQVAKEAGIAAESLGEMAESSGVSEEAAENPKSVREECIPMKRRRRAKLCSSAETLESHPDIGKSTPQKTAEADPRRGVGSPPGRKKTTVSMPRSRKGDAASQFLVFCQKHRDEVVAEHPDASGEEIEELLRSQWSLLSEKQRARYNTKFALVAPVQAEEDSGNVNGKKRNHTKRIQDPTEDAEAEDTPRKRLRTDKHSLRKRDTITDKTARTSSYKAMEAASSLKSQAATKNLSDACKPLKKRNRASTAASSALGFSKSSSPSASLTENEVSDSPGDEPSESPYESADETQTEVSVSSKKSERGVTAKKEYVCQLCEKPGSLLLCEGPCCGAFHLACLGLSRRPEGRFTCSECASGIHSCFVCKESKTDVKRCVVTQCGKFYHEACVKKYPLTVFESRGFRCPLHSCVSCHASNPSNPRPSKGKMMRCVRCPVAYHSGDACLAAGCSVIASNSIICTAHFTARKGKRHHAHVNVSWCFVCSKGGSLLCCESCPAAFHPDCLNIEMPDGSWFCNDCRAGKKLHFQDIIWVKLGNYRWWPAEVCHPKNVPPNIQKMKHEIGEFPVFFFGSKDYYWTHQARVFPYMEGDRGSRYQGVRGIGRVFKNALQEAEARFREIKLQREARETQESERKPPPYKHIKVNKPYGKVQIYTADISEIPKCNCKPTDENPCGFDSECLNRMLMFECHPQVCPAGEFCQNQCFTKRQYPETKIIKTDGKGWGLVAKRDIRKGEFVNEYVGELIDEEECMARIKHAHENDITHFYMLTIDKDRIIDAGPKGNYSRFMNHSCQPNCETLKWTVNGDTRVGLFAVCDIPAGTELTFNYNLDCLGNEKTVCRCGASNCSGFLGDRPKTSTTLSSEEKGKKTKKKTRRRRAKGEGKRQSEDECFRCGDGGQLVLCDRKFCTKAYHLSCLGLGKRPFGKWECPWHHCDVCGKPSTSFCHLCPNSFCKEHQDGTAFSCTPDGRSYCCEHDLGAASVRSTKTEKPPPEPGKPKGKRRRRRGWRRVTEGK
- assayRemarks: NSD2 histone methyltransferase activity blockers – biochemical, plate reader, single point, primary screen (AID 624260);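 note: inhibitors reduce the monomethyl H3K36 fluorescence signal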
- studyConditions: NSD2-SET H3K36me1 DELFIA fluorescence, at 12.5 µM, active compounds read high
In all, about 44,000 compounds went through this assay and about 30 (0.07%) were called active. Roughly 1% stayed inconclusive and do not appear here. The full list was thinned out, with actives kept by preference.
assayMetric: inhibition (%)
Number only, in %; omit the unit.

Need inhibition, item `C[C@@H]1CN([C@@H](C)CO)C(=O)c2cccc(N(C)C)c2O[C@@H]1CN(C)S(=O)(=O)c1ccccc1`
2.66

Lookup `O=C(C[C@H]1CC[C@@H](NC(=O)Nc2ccc(F)cc2)[C@H](CO)O1)NCc1cccc(F)c1`
9.13

Lookup `O=C(C[C@H]1C[C@H]2c3cc(NC(=O)CC4CC4)ccc3O[C@H]2[C@H](CO)O1)NCc1ccccn1`
-2.07

Lookup `C[C@@H]1CN([C@H](C)CO)S(=O)(=O)c2ccc(C#C[C@@H](C)O)cc2O[C@H]1CN(C)C(=O)C1CCCCC1`
-2.77

Lookup `COc1cc(/C=N/NC(=O)c2ccc(C(=O)NO)cc2)ccc1O`
-2.52
